System: MKL-1
Assay: qHTS assay to identify novel small-molecules to repurpose for Merkel cell carcinoma treatment (AID 1296009); also: % is scaled to controls: 0 for no effect and ±100 for the full control effect; nearly all actives have a fitted effect of over 60% in size
Settings: MCC and control cell lines, CellTiter-Glo viability, 72 h; series mostly up to 46 µM
Results filed as inconclusive are left out. The source made the active and inactive calls. Calls follow the shape of the dose curve; as a rule, active = well fitted inhibition curve with a large enough effect; inconclusive = small, poorly fitted or top-dose-only effect; inactive = flat fitted curve, though single readings scatter.
measure.name: activity change, negative = cytotoxicity

Here's what some known entries look like.
COCC(=O)Nc1c(I)c(C(=O)NCC(O)CO)c(I)c(C(=O)N(C)CC(O)CO)c1I (stereo not drawn): inactive
CC(=O)SC[C@@H](Cc1ccccc1)C(=O)NCC(=O)OCc1ccccc1: inactive
CC(=O)Nc1ccc(OCCOCCOc2ccc(NC(C)=O)cc2)cc1: inactive
C[C@@H]1CCC[C@H](C)N1: inactive
Cn1cc(C(=O)[C@@H]2CCc3nc[nH]c3C2)c2ccccc21: inactive

activity change, negative = cytotoxicity for C/C=C/C(=O)N(CC)c1ccccc1C is inactive

Just so you know, measured activity change, negative = cytotoxicity for CC1CC(OC(=O)c2ccccc2O)CC(C)(C)C1 (stereo not drawn) came out at inactive

// activity change, negative = cytotoxicity lookup, compound = CC(=O)N(CC(O)CN(C(C)=O)c1c(I)c(C(=O)NCC(O)CO)c(I)c(C(=O)NCC(O)CO)c1I)c1c(I)c(C(=O)NCC(O)CO)c(I)c(C(=O)NCC(O)CO)c1I (stereo not drawn) , result: inactive

Please fill in: activity change, negative = cytotoxicity reported for CCCCCCCCCCCCCCCCC(C(=O)O)C(O)(CC(=O)O)C(=O)O (stereo not drawn) = inactive

get_value(item= NC(=O)NS(=O)(=O)c1ccc(N)cc1 , readout=activity change, negative = cytotoxicity) returns inactive

activity change, negative = cytotoxicity reading for CCN(CC)C(=O)c1cccc(C)c1 : inactive

* * *

Test: Drug repurposing screens with cells derived from glioblastoma tumor samples (AID 1345199); also: % is scaled to controls: 0 for no effect and ±100 for the full control effect; nearly all actives have a fitted effect of over 40% in size
Details: GBM patient neurospheres viability, ATP luminescence, 48 h; at 45.9 µM (top of the series); tumour line D
Inconclusive results are not listed.
# activity, negative = cell killing values compiled below
Give the value in % but do not write % after it.

CC(=O)OC[C@H]1O[C@@](COC(C)=O)(O[C@H]2O[C@H](COC(C)=O)[C@@H](OC(C)=O)[C@H](OC(C)=O)[C@H]2OC(C)=O)[C@@H](OC(C)=O)[C@@H]1OC(C)=O: -9.16

Recorded result, CCOC(=O)c1cccnc1 , activity, negative = cell killing: -8.05

Form field activity, negative = cell killing, entry Cc1c(Cn2ccnc2)c2ccccc2n1CCC(=O)O : -4.06

Lookup result for O=C(CN1CCNCC1)NC1CCCCC1 ; measured activity, negative = cell killing: -7.64

So for CN1CCN(C(=O)C2CCCCC2)CC1 , the logged activity, negative = cell killing turned out to be -7.41

Lab note: measured activity, negative = cell killing of Cc1ccc(C(C)C)c(O)c1 was -0.376

* * *

System: PAD
Experiment: qHTS profiling for inhibitors of Plasmodium falciparum proliferation (AID 504749);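 also: 0% = DMSO vehicle and full inhibition = artemisinin control; nearly all actives have a fitted effect of over 60% in size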
Conditions: P. falciparum in erythrocytes, SYBR Green DNA, 72 h; series mostly up to 28.7 µM
Records with an inconclusive call do not appear. The source made the active and inactive calls. The call rests on the fitted dose curve; in most records, active means well fitted inhibition curve with a large enough effect; inconclusive means small, poorly fitted or top-dose-only effect; inactive means flat fitted curve, though single readings scatter.
Select the correct class. Options are active, inactive and nothing else.

Before answering, review these 4 worked examples.
COc1cc(C(=O)NCCCCCC(=O)O)cc(OC)c1OC: inactive
C=CCSCC1Nc2cc(Cl)c(S(N)(=O)=O)cc2S(=O)(=O)N1 (stereo unspecified): inactive
COc1nccnc1NS(=O)(=O)c1ccc(N)cc1: inactive
Cc1cc(=O)[nH]c(=S)[nH]1: inactive

With those in mind, consider the next compound.
stdin: Per the assay record, what outcome was assigned to O=c1[nH]c2cc(C(F)(F)F)c(N3CCOCC3)cc2n(CP(=O)(O)O)c1=O ?
stdout: inactive

* * *

Tested on: KB-3-1
Experiment: Cytotoxic Profiling of Annotated Libraries Using Quantitative High-Throughput Screening (AID 1296008)
Conditions: Five cell lines viability, CellTiter-Glo ATP luminescence, 48-72 h, stronger effect = lower value
Results filed as inconclusive are left out.
measure.name: max response (%)
# number only, unit % dropped from output

COC(=O)c1cccnc1: 10
Cc1c(Cn2ccnc2)c2ccccc2n1CCC(=O)O: -18.7
Cc1cc(NC(=O)C2=C(O)c3ccccc3S(=O)(=O)N2C)no1: -4.98

Sample Cc1cccc(C)c1NC(=O)CC12CCCN1CCC2 , system: KB-3-1. Its max response is -0.628

Lab note: molecule NS(=O)(=O)c1ccc(NC(=O)CCC(=O)O)cc1 tested on KB-3-1; recorded max response was -4.48

Query O=C(O)COC(=O)Cc1ccccc1Nc1c(Cl)cccc1Cl on KB-3-1; max response returned: 5.03

Hey, KB-3-1 data for COC(=O)c1ccccc1C(=O)c1ccc(OCCN2CCCCC2)cc1 : max response came out at -16

* * *

System: CP305
Test: qHTS profiling for inhibitors of Plasmodium falciparum proliferation (AID 504749);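 also: 0% = DMSO vehicle and full inhibition = artemisinin control; nearly all actives have a fitted effect of over 60% in size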
Conditions: P. falciparum in erythrocytes, SYBR Green DNA, 72 h; series mostly up to 28.7 µM
Records with an inconclusive call do not appear. Calls of active or inactive are those of the source. The call rests on the fitted dose curve; in most records, active means well fitted inhibition curve with a large enough effect; inconclusive means small, poorly fitted or top-dose-only effect; inactive means flat fitted curve, though single readings scatter.
measure.name: outcome

Cn1c(=O)c2c(ncn2CCO)n(C)c1=O: inactive
CCc1cccc(CC)c1NC(=O)CN(CC(=O)O)CC(=O)O: inactive
Cc1ccc(S(=O)(=O)NC(=O)NC2CCCCCCC2)cc1: inactive
CC1CCc2cc(F)cc3c(=O)c(C(=O)O)cn1c23 (configuration not stated): inactive
c1ccc2[nH]ccc2c1: inactive
CCCCCCCCCCCCCCCCC(C(=O)O)C(O)(CC(=O)O)C(=O)O (configuration not stated): inactive

Now look at this one.
The recorded outcome for entry CCOC(N)=O equals inactive

* * *

Experiment: Cell Viability - LYMP1-002 - Assay at 16 hr (AID 948);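 also: 0% = DMSO alone and full effect = 92 µM tetraoctylammonium bromide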
Conditions: LYMP1-002 lymphoblastoid cell viability; series mostly up to 92.2 µM
Records with an inconclusive call do not appear. Calls of active or inactive are those of the source. Calls follow the shape of the dose curve; as a rule, active = well fitted cell-killing curve with a large enough effect; inconclusive = small, poorly fitted or top-dose-only effect; inactive = flat fitted curve, though single readings scatter.
measure.name: outcome

Known results for compounds:
CC(=O)Nc1ccccc1: inactive
Nc1ccc(S(=O)(=O)c2ccc(N)cc2)cc1: inactive
O=C(O)CCCCC1CCSS1 (stereo not given): inactive
FC(F)(F)C(Cl)Br (stereo not given): inactive
C=CCNC(N)=S: inactive
O=C(c1ccccc1)C(O)c1ccccc1 (stereo not given): inactive
O=C1C(c2[nH]c3ccccc3c2O)=Nc2ccccc21: inactive
Cc1cc(=O)[nH]c(=S)[nH]1: inactive
CCCCCCCC(=O)OCC(COC(=O)CCCCCCC)OC(=O)CCCCCCC: inactive

Okay, now this compound:
Measured outcome, CC(=O)Nc1cccc(O)c1 : inactive

* * *

Experiment: Cell Viability - LYMP1-002 - Assay at 40 hr (AID 994)
Details: LYMP1-002 lymphoblastoid cell viability; series mostly up to 92.2 µM
Inconclusive results are not listed. Activity calls are given as the source filed them. Calls come from the whole dose curve; as a rule, active = well fitted cell-killing curve with a large enough effect; inconclusive = small, poorly fitted or top-dose-only effect; inactive = flat fitted curve, though single readings scatter.
measure.name: outcome

CC(=O)Nc1ccccc1: inactive
CC(=O)OCC(COC(C)=O)OC(C)=O: inactive
COc1ccc(O)cc1: inactive

* * *

System: GB4
Assay: qHTS profiling for inhibitors of Plasmodium falciparum proliferation (AID 504749);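 also: 0% = DMSO vehicle and full inhibition = artemisinin control; nearly all actives have a fitted effect of over 60% in size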
Conditions: P. falciparum in erythrocytes, SYBR Green DNA, 72 h; series mostly up to 28.7 µM
Protocol: NIH National Institute of Allergy and Infectious Diseases [NIAID] NIH Chemical Genomics Center [NCGC] […] Because mature erythrocytes lack DNA, only Plasmodium-derived DNA is detected. NCGC Assay Protocol Summary: The SYBR Green viability assay was adapted from a method described previously (Plouffe et al., 2008). […] The following morning, fluorescence intensity at 485(14) nm excitation and 535(25) nm emission wavelengths was measured on an EnVision (Perkin Elmer) plate reader. […]
Records with an inconclusive call do not appear. Active and inactive are the calls of the source. Calls come from the whole dose curve; as a rule, active = well fitted inhibition curve with a large enough effect; inconclusive = small, poorly fitted or top-dose-only effect; inactive = flat fitted curve, though single readings scatter.
measure.name: outcome

Reference set, count: 5
CC(N)CCCC(C)(C)O (centres undefined): inactive
CC[N+](CC)(CC(=O)Nc1c(C)cccc1C)Cc1ccccc1: inactive
CC(=O)NCc1c(I)c(NC(C)=O)c(I)c(C(=O)O)c1I: inactive
CC(C)=CCC/C(C)=C/CO: inactive
NS(=O)(=O)c1ccc(C(=O)O)cc1: inactive

Item: CCCCCC(C)N (centres undefined) | outcome: inactive

So, CCCCCCCCCCCCCCCCN ? Its outcome was inactive

outcome reading for NC(=O)CC[C@@H](N)C(=O)O : inactive

Lab note: O=c1[nH]c2cc(C(F)(F)F)c(N3CCOCC3)cc2n(CP(=O)(O)O)c1=O gave outcome of inactive

Lab note: CC(=O)Oc1cccc(C)c1 gave outcome of inactive

Just so you know, measured outcome for COc1ccc(C(=O)NCc2ccc(OCCN(C)C)cc2)cc1OC came out at inactive

Entry CCOC(=O)[C@H](CCc1ccccc1)N[C@@H](C)C(=O)N1CCC[C@H]1C(=O)O , outcome reported as inactive

Reported outcome for Cc1c(N(C)C)c(=O)n(-c2ccccc2)n1C was inactive

response.value for Nc1ccncc1N (field: outcome) = inactive
